These measurements were taken from ChEMBL document CHEMBL3507680.

# cytotoxicity at 70.5 h annotations
procedure.summary: Human HepG2 cell viability assay in 384 well format
Type: toxicity, cell-based
Set-up: dose 125 nL, time 70.5 hour; concentration not given beside the values
condition.summary: HepG2 cells, read-out: Inhibition
Answer with a number only, understood to be in %.

Consider the worked cases shown below.
O=C1CCC2(CCNCC2)CN1CCCNc1cccnc1 = -0.123
CN(Cc1ccc(F)cc1)CC1(O)CCN(C(=O)c2ccsc2)C1 (stereo not drawn) = 9.08
O=C(Nc1ccc(Cl)cn1)C1CCCN(Cc2ccccn2)C1 (stereo not drawn) = -1.12
Cc1cc(=O)n(CC(=O)Nc2ccc(C(N)=O)cc2)nc1C = -4.34
Cc1cc(C)cc(OCC(=O)NC2CCN(S(C)(=O)=O)CC2)c1 = 23.8

Which cytotoxicity at 70.5 h value is on record for O=c1cc(N2CCCCC2)cnn1CCCn1cccn1 ?
4.12

What do we get for CCn1cc(CN2C[C@@H]3CCCN3C[C@@H]2CCSC)cn1 ?
-2.81

What do we get for Cc1nc(C)c(C(=O)Nc2cnn(CC(=O)NC3CCCC3)c2)s1 ?
14.1

What do we get for CC(C)n1cnc(C2CN(C)c3ccc(C(=O)NC4CCCC4)cc32)n1 (stereo not drawn) ?
-5.54

What do we get for CC(C)(NCCCOc1ccc(C#N)cc1)c1nccs1 ?
-1.99

What do we get for O=C(NCCN1CCOCC1)c1ccc(OCc2ccccc2)nc1 ?
-1.05

What do we get for O=C(CCc1cscn1)N1CCCC(n2ccnc2)C1 (stereo not drawn) ?
2.29

What do we get for O=C([C@H]1COC[C@H]2CN(C3CCCC3)C[C@H]21)N1CCOCC1 ?
-9.13
